# Assay Method Text: xn = mol fraction of the nth substance listed, in the solute-free solvent
# Details: 283.15 K; x2 = 0.4772
Overview of reported solubility (g/100 g solution) across a group of compounds:
No unit in the answer, only the number.

Example results:
- Compound: "Cc1[nH]c(=O)c(C#N)cc1-c1ccncc1 + CCO + O"
  solubility (g/100 g solution): 0.00385
- Compound: "CC(C)OC(=O)C(C)NP(=O)(OCC1OC(n2ccc(=O)[nH]c2=O)C(C)(F)C1O)Oc1ccccc1 (centres undefined) + CCO + O"
  solubility (g/100 g solution): 13.7
- Compound: "Nc1cccc(S(=O)(=O)c2cccc(N)c2)c1 + CCO + O"
  solubility (g/100 g solution): 0.76

Given COc1cc2c(cc1OC)-c1cc3ccc(OC)c(OC)c3c[n+]1CC2.[Cl-] + CCO + O , state its recorded solubility (g/100 g solution).
1.88

---

# Assay Method Text: xn = mol fraction of the nth substance listed, in the solute-free solvent
# Details: 288.15 K; x2 = 0.06974
Measured solubility (g/100 g solution) by item
Please give the numeric answer without any surrounding text.

Completed entries (count: 4):
- Compound: "Nc1nccnc1Cl + CC(C)O + O"
  solubility (g/100 g solution): 0.134
- Compound: "c1ccc2[nH]c(-c3cscn3)nc2c1 + CCCO + O"
  solubility (g/100 g solution): 0.017
- Compound: "c1ccc2[nH]c(-c3cscn3)nc2c1 + CC(C)O + O"
  solubility (g/100 g solution): 0.00964
- Compound: "CN1CCN(C2=Nc3cc(Cl)ccc3Nc3ccccc32)CC1 + CC(C)O + O"
  solubility (g/100 g solution): 0.0371

What does the data say about its solubility (g/100 g solution)? Entry: Nc1cccc(S(=O)(=O)c2cccc(N)c2)c1 + CC(C)O + O
0.146

Can you look up the measured solubility (g/100 g solution) of Cc1[nH]c(=O)c(C#N)cc1-c1ccncc1 + CC(C)O + O for me?
0.00243

---

# Assay Method Text: xn = mol fraction of the nth substance listed, in the solute-free solvent
# Details: 313.15 K; x2 = 0.7
Quantity Kind: solubility (g/100 g solution)
Form field (numeric): enter value without unit.

Some molecules with recorded solubility (g/100 g solution):
- Molecule: "Cc1ncc(C[n+]2csc(CCO)c2C)c(N)n1.O=[N+]([O-])[O-] + O + CC(C)O"
  solubility (g/100 g solution): 2.61
- Molecule: "CC(N)C(=O)O (stereo unspecified) + O + CC(C)=O"
  solubility (g/100 g solution): 0.794
- Molecule: "Cc1ncc(C[n+]2csc(CCO)c2C)c(N)n1.O=[N+]([O-])[O-] + O + CC(C)=O"
  solubility (g/100 g solution): 3.23
- Molecule: "Cc1ncc(C[n+]2csc(CCO)c2C)c(N)n1.O=[N+]([O-])[O-] + O + CO"
  solubility (g/100 g solution): 4.6
- Molecule: "CC(N)C(=O)O (stereo unspecified) + O + CO"
  solubility (g/100 g solution): 3.85

Query: solubility (g/100 g solution); subject: S=c1[nH]ncs1 + CC(C)=O + O
35

I would be grateful if you could share the reported solubility (g/100 g solution) for S=c1[nH]ncs1 + CCO + O .
22.4

Quick one: solubility (g/100 g solution) for OCCN(CCO)c1nc(N2CCCCC2)c2nc(N(CCO)CCO)nc(N3CCCCC3)c2n1 + CCO + O ?
16.7

What value of measured solubility (g/100 g solution) is listed for S=c1[nH]ncs1 + CCCO + O ?
19.7

Which solubility (g/100 g solution) reading was recorded for the molecule OCCN(CCO)c1nc(N2CCCCC2)c2nc(N(CCO)CCO)nc(N3CCCCC3)c2n1 + CC(C)O + O ?
19.1

---

# Assay Method Text: xn = mol fraction of the nth substance listed, in the solute-free solvent
# Details: 313.15 K; x2 = 0.3103
Listed compounds paired with reported solubility (g/100 g solution)
// no unit, no text: just the number

# get_value(readout='solubility (g/100 g solution)', item= c1ccc2[nH]c(-c3cscn3)nc2c1 + CC(C)O + O )
0.234

So what's the measured solubility (g/100 g solution) for this one? CN1CCN(C2=Nc3cc(Cl)ccc3Nc3ccccc32)CC1 + CC(C)O + O
1.22

Entry Nc1nccnc1Cl + CC(C)O + O : reported solubility (g/100 g solution) = ?
1.2

What measured solubility (g/100 g solution) goes with Cc1[nH]c(=O)c(C#N)cc1-c1ccncc1 + CC(C)O + O ?
0.0171

I have this compound here, Nc1cccc(S(=O)(=O)c2cccc(N)c2)c1 + CC(C)O + O , and I need its recorded solubility (g/100 g solution).
1.51

Endpoint output: solubility (g/100 g solution) of c1ccc2[nH]c(-c3cscn3)nc2c1 + CCCO + O . Value?
0.47

---

# Assay Method Text: xn = mol fraction of the nth substance listed, in the solute-free solvent
# Details: 308.15 K; x2 = 0.4117
Quantity Kind: solubility (g/100 g solution)

Below: 3 compounds and their reported solubility (g/100 g solution).
- Compound: "Cc1[nH]c(=O)c(C#N)cc1-c1ccncc1 + CC(C)O + O"
  Quantity Kind: "solubility (g/100 g solution)"
  Assay Value: 0.0178
- Compound: "c1ccc2[nH]c(-c3cscn3)nc2c1 + CC(C)O + O"
  Quantity Kind: "solubility (g/100 g solution)"
  Assay Value: 0.287
- Compound: "Nc1cccc(S(=O)(=O)c2cccc(N)c2)c1 + CC(C)O + O"
  Quantity Kind: "solubility (g/100 g solution)"
  Assay Value: 1.34

Please report the recorded solubility (g/100 g solution) for c1ccc2[nH]c(-c3cscn3)nc2c1 + CCCO + O .
0.563

What value of solubility (g/100 g solution) has been recorded for this entry: CN1CCN(C2=Nc3cc(Cl)ccc3Nc3ccccc32)CC1 + CC(C)O + O
1.47

Endpoint output: solubility (g/100 g solution) of Nc1nccnc1Cl + CC(C)O + O . Value?
1.23

---

# solubility (g/100 g solution) listing for each entry below
# Assay Method Text: xn = mol fraction of the nth substance listed, in the solute-free solvent
# Details: 283.15 K; x2 = 0.7297

Fill blank: measured solubility (g/100 g solution) of the compound Nc1nccnc1Cl + CC(C)O + O is ____.
0.529

Report solubility (g/100 g solution) for Cc1[nH]c(=O)c(C#N)cc1-c1ccncc1 + CC(C)O + O please.
0.0102

Which solubility (g/100 g solution) is listed for Nc1cccc(S(=O)(=O)c2cccc(N)c2)c1 + CC(C)O + O ?
0.432

Quick check: solubility (g/100 g solution) of CN1CCN(C2=Nc3cc(Cl)ccc3Nc3ccccc32)CC1 + CC(C)O + O ?
1.13

Fill in the blank: the reported solubility (g/100 g solution) of c1ccc2[nH]c(-c3cscn3)nc2c1 + CCCO + O is ____.
0.425

Look up solubility (g/100 g solution) for this compound: c1ccc2[nH]c(-c3cscn3)nc2c1 + CC(C)O + O
0.197

---

# Assay Method Text: xn = mol fraction of the nth substance listed, in the solute-free solvent
# Details: 278.15 K; x2 = 0.6
Please note: met applies when solubility (g/100 g solution) is 0.6 or greater, and not met applies otherwise.

Please review the entries below; each comes with its answer.
- Molecule: "S=c1[nH]ncs1 + CC(C)=O + O"
  Label: "met"
- Molecule: "S=c1[nH]ncs1 + CCCO + O"
  Label: "met"
- Molecule: "S=c1[nH]ncs1 + CCO + O"
  Label: "met"

Hi, just wondering whether S=c1[nH]ncs1 + CO + O shows solubility (g/100 g solution) of 0.6 or higher.
met

Is it the case that Cc1ncc(C[n+]2csc(CCO)c2C)c(N)n1.O=[N+]([O-])[O-] + O + CC(C)=O has solubility (g/100 g solution) reaching or exceeding 0.6?
met

State whether the measured solubility (g/100 g solution) reaches 0.6, counting equality as reaching it, for Cc1ncc(C[n+]2csc(CCO)c2C)c(N)n1.O=[N+]([O-])[O-] + O + CC(C)O
not met

Tell me whether solubility (g/100 g solution) is at least 0.6 here: CCCCCOC(=O)Nc1nc(=O)n(C2OC(C)C(O)C2O)cc1F (stereo not drawn) + CCOC(C)=O + CCCCCC
not met

Could you tell me if the measured solubility (g/100 g solution) of Cc1ncc(C[n+]2csc(CCO)c2C)c(N)n1.O=[N+]([O-])[O-] + O + CO reaches 0.6 or more?
met

---

# Assay Method Text: xn = mol fraction of the nth substance listed, in the solute-free solvent
# Details: 298.15 K; x2 = 0.03225
Quantity Kind: solubility (g/100 g solution)
API doc: respond with a numeric literal and nothing else, no unit.

Item c1ccc2[nH]c(-c3cscn3)nc2c1 + CC(C)O + O has what recorded solubility (g/100 g solution)?
0.00356

Any idea what its solubility (g/100 g solution) is? The molecule is Nc1nccnc1Cl + CC(C)O + O
0.112

What does the record list as solubility (g/100 g solution) for Cc1[nH]c(=O)c(C#N)cc1-c1ccncc1 + CC(C)O + O ?
0.00202
